B1: library; a variant is named by its letters at N, in order (parent)
chain: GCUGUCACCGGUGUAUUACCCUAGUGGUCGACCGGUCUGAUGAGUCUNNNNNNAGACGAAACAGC

Variants of: B1
Assay: normalized RNA/DNA level without ligand (relative to sTRSVctl = 100) (log10 (% of sTRSVctl)); ligand: hypoxanthine (xanthine aptamer); higher = less ribozyme self-cleavage, higher mRNA level
Settings: HEK293T, reporter: mCherry (pCS4076), ligand present: no
measurementLabel: normalized RNA/DNA level without ligand (log10)
No unit in the answer, only the number.

Some entries whose results are on file:
UGAGCA	1.8
GAUGGC	1.6
CAAUCG	1.89
CGAAAA	1.69

Exercise: Which normalized RNA/DNA level without ligand (log10) is listed for "AGAGUG" ?
Solution: 1.33

Exercise: Entry under review: "UAACGU" . Reported normalized RNA/DNA level without ligand (log10)?
Solution: 1.61

Exercise: Find the recorded normalized RNA/DNA level without ligand (log10) belonging to "UACACG" and report it.
Solution: 1.63

Exercise: Report normalized RNA/DNA level without ligand (log10) for "UAAGCU" please.
Solution: 1.87

Exercise: Any idea what its normalized RNA/DNA level without ligand (log10) is? The variant is "UGCGUU"
Solution: 1.92

Exercise: Please report the recorded normalized RNA/DNA level without ligand (log10) for "UAUAGG" .
Solution: 1.43

Exercise: So what's the measured normalized RNA/DNA level without ligand (log10) for this one? "UUGCUG"
Solution: 1.94
